Molecular target: 5-hydroxytryptamine receptor 2A (Homo sapiens); note: assay procedure not described here
Sequence (P28223 whole entry): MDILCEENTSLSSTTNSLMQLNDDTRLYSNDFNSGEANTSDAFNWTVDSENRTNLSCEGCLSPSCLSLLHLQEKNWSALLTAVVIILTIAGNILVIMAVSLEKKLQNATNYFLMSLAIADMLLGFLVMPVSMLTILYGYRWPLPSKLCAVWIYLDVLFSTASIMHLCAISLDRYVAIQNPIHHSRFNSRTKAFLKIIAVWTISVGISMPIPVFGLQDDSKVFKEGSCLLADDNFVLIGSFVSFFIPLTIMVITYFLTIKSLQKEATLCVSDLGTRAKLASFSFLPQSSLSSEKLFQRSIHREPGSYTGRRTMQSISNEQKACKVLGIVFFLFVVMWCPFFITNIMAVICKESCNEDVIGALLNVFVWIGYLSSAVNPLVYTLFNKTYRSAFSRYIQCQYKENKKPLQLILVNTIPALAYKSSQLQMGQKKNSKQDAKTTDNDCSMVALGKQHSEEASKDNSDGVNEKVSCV
Reported AC50 values for a set of compounds
REPORTED_METRIC: AC50

INSERT INTO results (compound, observed_value) VALUES
  ('Cc1ccc(-c2nc3ccc(C)cn3c2CC(=O)N(C)C)cc1', '> 10 µM'),
  ('CC(Cc1ccccc1)NCCC(c1ccccc1)c1ccccc1 (centres undefined)', '3.38 µM'),
  ('CC(N)Cc1ccccc1 (centres undefined)', '> 10 µM'),
  ('CN(CCOc1ccc(NS(C)(=O)=O)cc1)CCc1ccc(NS(C)(=O)=O)cc1 [DOFETILIDE]', '> 10 µM'),
  ('CCCCCN(C)CCC(O)(P(=O)(O)O)P(=O)(O)O', '> 10 µM'),
  ('CN(C)C(=O)OC1N=C(c2ccccc2)c2cc(Cl)ccc2N(C)C1=O (centres undefined)', '> 10 µM'),
  ('CC(=O)N(CC(O)CO)c1c(I)c(C(=O)NCC(O)CO)c(I)c(C(=O)NCC(O)CO)c1I (centres undefined) [IOHEXOL]', '> 10 µM'),
  ('CC(C)(N)Cc1ccc(Cl)cc1', '9.06 µM'),
  ('Cc1c(C(=O)Nc2ccc(N3C[C@@H](C)O[C@@H](C)C3)nc2)cccc1-c1ccc(OC(F)(F)F)cc1', '> 10 µM'),
  ('O=C(O)CCCc1ccccc1', '> 10 µM'),
  ('CC(C(=O)O)c1ccc(N2CC=CC2)c(Cl)c1 (centres undefined)', '> 10 µM'),
  ('O=C(Nc1ccccc1)OCC(CN1CCCCC1)OC(=O)Nc1ccccc1 (centres undefined)', '> 10 µM'),
  ('CCCCCCCCCCCC[N+](C)(C)CCOc1ccccc1', '0.14 µM'),
  ('O=C(O)c1cccc(-c2noc(-c3ccccc3F)n2)c1', '> 10 µM'),
  ('Cc1cc(-c2ccccc2)nnc1NCCN1CCOCC1', '> 10 µM'),
  ('CN1CCc2cccc3c2[C@H]1Cc1ccc(O)c(O)c1-3', '0.964 µM'),
  ('C#CC1(OC(N)=O)CCCCC1 [ETHINAMATE]', '> 10 µM'),
  ('NC(CO)C(=O)NNCc1ccc(O)c(O)c1O (centres undefined) [BENSERAZIDE]', '> 10 µM'),
  ('C1COC(NC(C2CC2)C2CC2)=N1', '> 10 µM');

* * *

Let's go through some AC50 measurements on Neuronal acetylcholine receptor subunit alpha-4 (Homo sapiens, UniProt P43681) together.
Sequence (P43681 whole entry): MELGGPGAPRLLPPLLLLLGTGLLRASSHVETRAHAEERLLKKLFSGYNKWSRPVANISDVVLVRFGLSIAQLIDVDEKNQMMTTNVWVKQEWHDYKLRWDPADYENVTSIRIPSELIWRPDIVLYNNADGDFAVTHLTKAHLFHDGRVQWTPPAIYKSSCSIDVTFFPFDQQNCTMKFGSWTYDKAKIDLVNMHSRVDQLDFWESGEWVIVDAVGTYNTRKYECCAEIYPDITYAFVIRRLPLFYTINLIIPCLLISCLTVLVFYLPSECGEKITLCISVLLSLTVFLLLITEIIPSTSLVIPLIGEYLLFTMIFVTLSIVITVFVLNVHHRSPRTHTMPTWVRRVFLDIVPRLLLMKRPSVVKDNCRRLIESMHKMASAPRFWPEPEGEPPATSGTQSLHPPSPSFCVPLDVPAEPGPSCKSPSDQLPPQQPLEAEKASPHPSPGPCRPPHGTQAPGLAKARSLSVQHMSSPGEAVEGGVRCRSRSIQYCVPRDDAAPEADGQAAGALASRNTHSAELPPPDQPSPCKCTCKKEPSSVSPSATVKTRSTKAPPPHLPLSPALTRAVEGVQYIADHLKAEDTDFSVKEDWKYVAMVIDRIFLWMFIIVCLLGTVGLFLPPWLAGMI
REPORTED_METRIC: AC50

INSERT INTO assay_data (compound, reported_metric, observed_value) VALUES
  ('Cc1cccc(C)c1NC(=O)C1CCCCN1C (centres undefined) [MEPIVACAINE]', 'AC50', '> 30 µM'),
  ('O=C(O)c1cccc(-c2noc(-c3ccccc3F)n2)c1', 'AC50', '> 10 µM'),
  ('CC(=O)N[C@H]1[C@H]([C@H](O)[C@H](O)CO)OC(C(=O)O)=C[C@@H]1N=C(N)N [ZANAMIVIR]', 'AC50', '> 30 µM'),
  ('C#CCN(C)[C@H](C)Cc1ccccc1 [SELEGILINE]', 'AC50', '> 10 µM'),
  ('O=C(Cn1ccnc1[N+](=O)[O-])NCc1ccccc1 [BENZNIDAZOLE]', 'AC50', '> 30 µM'),
  ('CN1CCc2cccc3c2[C@H]1Cc1ccc(O)c(O)c1-3 [APOMORPHINE]', 'AC50', '> 10 µM'),
  ('CC1=CC(=O)c2ccccc2C1=O [MENADIONE]', 'AC50', '> 10 µM'),
  ('CC(C)c1c(C(=O)Nc2ccccc2)c(-c2ccccc2)c(-c2ccc(F)cc2)n1CC[C@@H](O)C[C@@H](O)CC(=O)O [ATORVASTATIN]', 'AC50', '> 10 µM'),
  ('NC[C@H]1O[C@H](O[C@H]2[C@H](O)[C@@H](O[C@H]3O[C@H](CO)[C@@H](O)[C@H](N)[C@H]3O)[C@H](N)C[C@@H]2N)[C@H](O)[C@@H](O)[C@@H]1O [KANAMYCIN]', 'AC50', '> 10 µM');
